# TARGET OR TEST SYSTEM: T1, Cav3.1 (Homo sapiens, UniProt O43497)
# T1 construct: expressed in transfected cells; host or cells: HEK-293, stably transfected
# T1 sequence (O43497 whole entry): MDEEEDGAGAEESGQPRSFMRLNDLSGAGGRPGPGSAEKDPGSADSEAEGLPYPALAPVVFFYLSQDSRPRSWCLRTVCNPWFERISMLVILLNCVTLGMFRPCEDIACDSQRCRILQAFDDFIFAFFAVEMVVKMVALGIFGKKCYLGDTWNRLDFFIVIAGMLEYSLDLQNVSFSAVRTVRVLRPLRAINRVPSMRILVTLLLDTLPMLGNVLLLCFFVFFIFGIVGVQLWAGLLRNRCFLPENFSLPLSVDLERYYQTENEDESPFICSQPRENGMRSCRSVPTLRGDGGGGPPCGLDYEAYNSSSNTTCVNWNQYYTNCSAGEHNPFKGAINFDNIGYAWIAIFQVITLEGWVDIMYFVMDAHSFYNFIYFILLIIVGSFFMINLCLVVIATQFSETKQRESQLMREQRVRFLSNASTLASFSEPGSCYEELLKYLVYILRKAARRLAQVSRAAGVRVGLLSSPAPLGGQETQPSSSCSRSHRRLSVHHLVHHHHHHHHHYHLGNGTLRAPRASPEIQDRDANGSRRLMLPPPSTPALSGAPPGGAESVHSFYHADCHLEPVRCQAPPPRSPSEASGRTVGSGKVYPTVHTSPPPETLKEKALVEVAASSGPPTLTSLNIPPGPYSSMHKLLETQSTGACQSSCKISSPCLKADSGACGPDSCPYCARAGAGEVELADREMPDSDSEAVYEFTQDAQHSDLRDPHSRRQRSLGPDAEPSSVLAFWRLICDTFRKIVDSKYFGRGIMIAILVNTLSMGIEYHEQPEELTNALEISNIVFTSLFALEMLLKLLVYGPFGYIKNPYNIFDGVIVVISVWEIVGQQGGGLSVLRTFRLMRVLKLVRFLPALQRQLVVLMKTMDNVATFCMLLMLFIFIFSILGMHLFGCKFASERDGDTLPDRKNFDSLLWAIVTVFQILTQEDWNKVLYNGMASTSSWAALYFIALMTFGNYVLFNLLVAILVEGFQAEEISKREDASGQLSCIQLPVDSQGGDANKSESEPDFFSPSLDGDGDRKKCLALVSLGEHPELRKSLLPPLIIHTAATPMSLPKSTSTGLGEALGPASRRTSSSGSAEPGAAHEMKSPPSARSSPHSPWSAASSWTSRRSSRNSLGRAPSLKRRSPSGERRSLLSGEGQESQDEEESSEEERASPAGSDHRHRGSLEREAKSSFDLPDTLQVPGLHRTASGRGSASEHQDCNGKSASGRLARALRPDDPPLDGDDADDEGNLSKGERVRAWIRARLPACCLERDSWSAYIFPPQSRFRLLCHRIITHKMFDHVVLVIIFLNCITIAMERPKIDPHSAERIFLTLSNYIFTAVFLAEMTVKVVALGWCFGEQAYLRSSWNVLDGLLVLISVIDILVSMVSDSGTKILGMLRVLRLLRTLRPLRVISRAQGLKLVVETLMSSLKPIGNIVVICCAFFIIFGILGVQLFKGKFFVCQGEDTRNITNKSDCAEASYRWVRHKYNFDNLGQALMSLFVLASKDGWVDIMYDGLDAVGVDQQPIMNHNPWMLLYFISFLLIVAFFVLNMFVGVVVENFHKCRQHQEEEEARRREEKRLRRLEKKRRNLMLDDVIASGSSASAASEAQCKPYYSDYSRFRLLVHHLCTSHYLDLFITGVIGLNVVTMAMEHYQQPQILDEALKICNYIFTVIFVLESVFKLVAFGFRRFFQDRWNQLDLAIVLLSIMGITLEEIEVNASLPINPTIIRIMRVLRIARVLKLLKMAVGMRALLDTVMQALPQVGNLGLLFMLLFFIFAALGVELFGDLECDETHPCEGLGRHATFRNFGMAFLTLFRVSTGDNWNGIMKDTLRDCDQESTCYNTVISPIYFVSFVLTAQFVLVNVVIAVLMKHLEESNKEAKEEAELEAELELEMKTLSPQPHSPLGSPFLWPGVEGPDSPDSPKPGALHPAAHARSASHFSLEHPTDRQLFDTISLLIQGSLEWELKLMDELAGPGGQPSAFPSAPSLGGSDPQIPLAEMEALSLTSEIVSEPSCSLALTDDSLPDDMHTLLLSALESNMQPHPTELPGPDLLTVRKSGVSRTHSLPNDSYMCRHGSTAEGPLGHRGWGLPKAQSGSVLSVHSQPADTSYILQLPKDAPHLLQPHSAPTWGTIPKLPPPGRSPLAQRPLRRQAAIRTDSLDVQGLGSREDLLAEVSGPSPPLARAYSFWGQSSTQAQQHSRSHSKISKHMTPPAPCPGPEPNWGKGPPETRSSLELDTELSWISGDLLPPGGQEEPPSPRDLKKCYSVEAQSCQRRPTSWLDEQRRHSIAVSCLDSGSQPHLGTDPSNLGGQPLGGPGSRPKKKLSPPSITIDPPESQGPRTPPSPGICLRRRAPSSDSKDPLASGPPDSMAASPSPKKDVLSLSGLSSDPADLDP
# ASSAY COMMENT: Whole-cell patch clamp of Cav3.1 dependent LVA calcium current in HEK-293/Cav3.1 cells transiently transfected with γ subunits (Example 1)
# Format: cell-based
# CONDITIONS USED: Table 2
ASSAY READOUT: Activation k

query: Form field: reported Activation k of γ7: rat calcium channel γ7 subunit (AF361345), SEQ ID NO:50 (protein, listed as Rattus norvegicus) MSHCSSRALTLLSSVFGACGLLLVGIAVSTDYWLYMEEGTVLPQNQTTEVKMALHAGLWRVCFFAGREKGRCVASEYFLEPEINLVTENTENILKTVRTATPFPMVSLFLVFTAFVISNIGHIRPQRTILAFVSGIFFILSGLSLVVGLVLYISSINDEVMNRPSSSEQYFHYRYGWSFAFAASSFLLKEGAGVMSVYLFTKRYAEEEMYRPHPAFYRPRLSDCSDYSGQFLQPEAWRRGRSPSDISSDVSIQMTQNYPPAIKYPDHLHISTSPC
result: 11.1 ± 0.3 (n = 11)
